meta.source: ChEMBL document CHEMBL1148750

test-target: Vascular endothelial growth factor receptor 2 (Homo sapiens, UniProt P35968)
Sequence (P35968 whole entry): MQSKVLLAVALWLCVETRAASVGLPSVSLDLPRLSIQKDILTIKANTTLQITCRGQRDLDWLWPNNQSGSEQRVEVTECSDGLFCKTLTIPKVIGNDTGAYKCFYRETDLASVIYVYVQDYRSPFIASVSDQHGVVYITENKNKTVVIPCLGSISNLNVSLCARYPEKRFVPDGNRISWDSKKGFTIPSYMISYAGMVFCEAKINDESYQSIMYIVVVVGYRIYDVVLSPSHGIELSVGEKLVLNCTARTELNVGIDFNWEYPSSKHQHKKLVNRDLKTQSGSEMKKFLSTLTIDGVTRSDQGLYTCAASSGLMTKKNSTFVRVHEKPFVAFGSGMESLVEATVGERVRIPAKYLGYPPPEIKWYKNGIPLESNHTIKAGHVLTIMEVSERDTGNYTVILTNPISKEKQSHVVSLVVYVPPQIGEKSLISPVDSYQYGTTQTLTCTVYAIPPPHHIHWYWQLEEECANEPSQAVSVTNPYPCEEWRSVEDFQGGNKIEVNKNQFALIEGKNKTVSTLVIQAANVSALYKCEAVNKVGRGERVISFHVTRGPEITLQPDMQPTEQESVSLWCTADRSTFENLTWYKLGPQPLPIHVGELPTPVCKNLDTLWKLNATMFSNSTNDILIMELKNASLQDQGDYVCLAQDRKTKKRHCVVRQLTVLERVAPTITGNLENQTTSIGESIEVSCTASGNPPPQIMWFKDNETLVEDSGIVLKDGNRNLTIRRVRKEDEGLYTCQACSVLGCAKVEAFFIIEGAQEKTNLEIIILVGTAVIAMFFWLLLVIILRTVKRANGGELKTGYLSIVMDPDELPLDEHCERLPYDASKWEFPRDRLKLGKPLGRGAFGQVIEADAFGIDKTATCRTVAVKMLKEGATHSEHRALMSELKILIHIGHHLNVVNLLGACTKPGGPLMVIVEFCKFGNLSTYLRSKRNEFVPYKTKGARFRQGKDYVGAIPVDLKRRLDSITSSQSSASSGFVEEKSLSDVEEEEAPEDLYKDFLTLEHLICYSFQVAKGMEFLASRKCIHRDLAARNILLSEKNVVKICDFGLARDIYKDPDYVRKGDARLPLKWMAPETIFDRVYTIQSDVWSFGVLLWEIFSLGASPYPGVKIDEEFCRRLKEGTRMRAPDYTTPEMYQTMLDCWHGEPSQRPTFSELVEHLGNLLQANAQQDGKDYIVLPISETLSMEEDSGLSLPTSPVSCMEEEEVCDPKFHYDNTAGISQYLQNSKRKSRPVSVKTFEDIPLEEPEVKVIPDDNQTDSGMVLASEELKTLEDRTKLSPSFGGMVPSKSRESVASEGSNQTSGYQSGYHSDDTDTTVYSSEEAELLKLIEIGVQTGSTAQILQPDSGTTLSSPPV
assay-comment: Inhibition of GST-tagged human recombinant VEGFR2 expressed in baculovirus
readout: IC50 (nM)

Below, each entry is followed by its recorded IC50 result.
                           structure_string                               test_target  observed_result
0  COC(=O)Nc1nc2cc(Oc3ccc(NC(=O)Nc4cc(F)ccc4F)cc3)ccc2[nH]1  Vascular endothelial growth factor receptor 2 (Homo sapiens, UniProt P35968)              7.6
1  COC(=O)Nc1nc2nc(Oc3ccc(NC(=O)Nc4cc(C(F)(F)F)ccc4F)cc3)ccc2[nH]1  Vascular endothelial growth factor receptor 2 (Homo sapiens, UniProt P35968)              2.3
2  COC(=O)Nc1nc2cc(Oc3ccc(NC(=O)Nc4cc(C(F)(F)F)ccc4Cl)cc3)ccc2[nH]1  Vascular endothelial growth factor receptor 2 (Homo sapiens, UniProt P35968)              3.3

1 = COC(=O)Nc1nc2ccc(Oc3ccc(NC(=O)Nc4cccc(Cl)c4)cc3)cc2[nH]1
2 = COC(=O)Nc1nc2cc(Oc3cccc(NC(=O)Nc4cc(C(F)(F)F)ccc4F)c3)ccc2[nH]1
Q) For the two items 1 and 2 , which reports the higher IC50 value? Give the label under which the chosen entry appears.
A) 2
(2: 17 nM, 1: 6.3 nM)

====

test-target: Vascular endothelial growth factor receptor 2 (Homo sapiens, UniProt P35968)
assay-comment: Inhibition of GST-tagged human recombinant VEGFR2 expressed in baculovirus
pIC50: −log10 of the molar value.
readout: pIC50

a = COC(=O)Nc1nc2ccc(Oc3ccc(NC(=O)Nc4cc(C(F)(F)F)ccc4F)c[n+]3[O-])cc2[nH]1
b = COC(=O)Nc1nc2cc(Oc3ccc(NC(=O)Nc4cccc(SC)c4)cc3)ccc2[nH]1
c = COC(=O)Nc1cn2cc(Oc3ccc(NC(=O)Nc4cc(C(F)(F)F)ccc4F)cc3)ccc2n1
d = COC(=O)Nc1nc2ccc(Oc3ccc(NC(=O)Nc4cc(C(F)(F)F)ccc4F)cc3)cc2n1C
Q) Rank descending by pIC50: all 4 compounds from above. Kindly provide the labels arranged according to the requested ordering.
A) c, b, d, a
(c: 8.47, b: 8.27, d: 7.57, a: 6.64)
